target: ACSS2 (Homo sapiens, UniProt Q9NR19); test: biochemical;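 also: Cell-free human ACSS2 enzyme reaction with acetate, CoA and ATP, 90 min at 37 C, coupled to pyrophosphatase, phosphate release detected by Biomol Green absorbance at 620 nm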
Sequence (Q9NR19 whole entry): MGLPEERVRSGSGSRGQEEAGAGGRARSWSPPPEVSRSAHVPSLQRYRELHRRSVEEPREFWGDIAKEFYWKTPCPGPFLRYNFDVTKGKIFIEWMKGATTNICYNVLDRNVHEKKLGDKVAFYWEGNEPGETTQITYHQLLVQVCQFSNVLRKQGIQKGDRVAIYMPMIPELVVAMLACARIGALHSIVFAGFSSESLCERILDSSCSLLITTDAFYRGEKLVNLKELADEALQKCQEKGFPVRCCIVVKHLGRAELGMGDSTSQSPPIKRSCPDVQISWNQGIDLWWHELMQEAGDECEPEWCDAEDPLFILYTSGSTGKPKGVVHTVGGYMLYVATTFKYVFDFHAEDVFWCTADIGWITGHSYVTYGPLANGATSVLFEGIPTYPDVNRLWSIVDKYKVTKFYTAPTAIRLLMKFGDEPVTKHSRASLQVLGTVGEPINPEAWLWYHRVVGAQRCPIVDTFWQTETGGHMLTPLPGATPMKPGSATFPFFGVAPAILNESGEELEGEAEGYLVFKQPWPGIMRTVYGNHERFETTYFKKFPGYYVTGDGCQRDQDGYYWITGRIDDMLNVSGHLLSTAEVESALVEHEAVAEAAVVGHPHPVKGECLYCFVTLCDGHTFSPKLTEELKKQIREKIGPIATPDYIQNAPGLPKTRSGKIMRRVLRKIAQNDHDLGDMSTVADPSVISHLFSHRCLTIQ
pIC50: −log10 of the molar value.
Measured pIC50 values are reported for all entries that follow.

- Molecule: "CC1=NN(c2cccc(S(=O)(=O)N(C)C)c2)C(=O)C1C(=O)Nc1cccc(-c2ccco2)c1 (centres unmarked)"
  Measured on: "ACSS2 (Homo sapiens, UniProt Q9NR19)"
  pIC50: "7.00 to 8.22"
- Molecule: "CCc1cccc(NC(=O)C2C(=O)N(c3ccc(N)cc3)N=C2C)c1 (centres unmarked)"
  Measured on: "ACSS2 (Homo sapiens, UniProt Q9NR19)"
  pIC50: "6.00 to 7.00"
- Molecule: "COc1cccc(N2N=C(C)C(C(=O)Nc3cccc(-c4ncco4)c3)C2=O)c1 (centres unmarked)"
  Measured on: "ACSS2 (Homo sapiens, UniProt Q9NR19)"
  pIC50: "7.00 to 8.22"
- Molecule: "COc1ccc(N2N=C(C)C(C(=O)Nc3cccc(C(C)(F)F)c3)C2=O)c(C(C)(C)C)c1 (centres unmarked)"
  Measured on: "ACSS2 (Homo sapiens, UniProt Q9NR19)"
  pIC50: "8.22 to 11.00"
- Molecule: "CC1=NN(c2cccc(-c3ncco3)c2)C(=O)C1C(=O)Nc1cccc(C(C)(F)F)c1 (centres unmarked)"
  Measured on: "ACSS2 (Homo sapiens, UniProt Q9NR19)"
  pIC50: "8.22 to 11.00"

Query block: Please give the documented pIC50 of CC1=NN(c2ccccc2)C(=O)C1C(=O)Nc1cccc(-c2ncco2)c1 (centres unmarked)
Result block: 7.00 to 8.22

Query block: Please give the documented pIC50 of CC1=NN(c2cccc(C(=O)O)c2)C(=O)C1C(=O)Nc1cccc(-c2ncc[nH]2)c1 (centres unmarked)
Result block: 7.00 to 8.22

Query block: Please give the documented pIC50 of COc1ccc(N2N=C(C)C(C(=O)Nc3cccc(C(C)(F)F)c3)C2=O)cc1-c1ccccn1 (centres unmarked)
Result block: 8.22 to 11.00

* * *

target: UniProt:Q9NR19; assay: biochemical
Measured metric: IC50

- Molecule: "CC1=NN(c2cccc(-c3nnc(C)o3)c2)C(=O)C1C(=O)Nc1cccc(C(C)(F)F)c1 (centres unmarked) [compound 280]"
  Reported result: "0.01 to 6 nM"
- Molecule: "CC1=NN(c2cccc(-c3ncco3)c2)C(=O)C1C(=O)Nc1cccc(-c2cnccn2)c1 (centres unmarked) [compound 227]"
  Reported result: "0.01 to 6 nM"
- Molecule: "CC1=NN(c2cccc(Br)c2)C(=O)C1C(=O)Nc1cccc(C(C)(F)F)c1 (centres unmarked) [compound 404]"
  Reported result: "0.01 to 6 nM"
- Molecule: "CC1=NN(c2ccncc2)C(=O)C1C(=O)Nc1cccc(-c2cnccn2)c1 (centres unmarked) [compound 232]"
  Reported result: "6 to 100 nM"
- Molecule: "CC1=NN(c2ccccc2)C(=O)C1C(=O)Nc1cccc(-c2ccncc2)c1 (centres unmarked) [compound 104]"
  Reported result: "1000 to 100000 nM"
- Molecule: "CC1=NN(c2ccc(OC(F)F)cc2)C(=O)C1C(=O)Nc1cccc(C(C)(O)c2ccccc2)c1 (centres unmarked) [compound 337]"
  Reported result: "6 to 100 nM"

Query block: Please give the documented IC50 of CCc1cccc(NC(=O)C2C(=O)N(c3ccc(OC)cc3)N=C2C)c1 (centres unmarked) [compound 138]
Result block: 6 to 100 nM

Query block: Please give the documented IC50 of CC1=NN(c2cc(Br)cc(-c3ccccc3)c2)C(=O)C1C(=O)Nc1cccc(C(C)(F)F)c1 (centres unmarked) [compound 389]
Result block: 0.01 to 6 nM

Query block: Please give the documented IC50 of CCc1cccc(NC(=O)c2c(C)nn(-c3ccc(NC)cc3)c2OC(=O)N(C)C)c1 [compound 224]
Result block: 1000 to 100000 nM

Query block: Please give the documented IC50 of CC1=NN(c2ccccc2)C(=O)C1C(=O)NC(=O)c1ccccc1 (centres unmarked) [compound 207]
Result block: 1000 to 100000 nM

Query block: Please give the documented IC50 of CC1=NN(c2ccc3[nH]ccc3c2)C(=O)C1C(=O)Nc1cccc(C(C)(F)F)c1 (centres unmarked) [compound 419]
Result block: 0.01 to 6 nM

Query block: Please give the documented IC50 of CC1=NN(c2cc(Cc3ccc(OCc4ccccc4)cc3)cc(-c3cccnc3)c2)C(=O)C1C(=O)Nc1cccc(C(C)(F)F)c1 (centres unmarked) [compound 373]
Result block: 100 to 1000 nM

Query block: Please give the documented IC50 of CC1=NN(c2ccccc2)C(=O)C1C(=O)Nc1ccc(O)cc1 (centres unmarked) [compound 205]
Result block: 1000 to 100000 nM

Query block: Please give the documented IC50 of CC1=NN(c2ccc(C3CC3)cc2)C(=O)C1C(=O)Nc1cccc(C(C)(F)F)c1 (centres unmarked) [compound 457]
Result block: 0.01 to 6 nM

Query block: Please give the documented IC50 of COc1ccc(N2N=C(C)C(C(=O)Nc3cccc(C(C)(F)F)c3)C2=O)cc1-c1ccc(-c2ccccc2)cc1 (centres unmarked) [compound 396]
Result block: 6 to 100 nM

Query block: Please give the documented IC50 of CC1=NN(c2ccc(OC(F)F)cc2)C(=O)C1C(=O)Nc1cccc2[nH]ccc12 (centres unmarked) [compound 350]
Result block: 100 to 1000 nM

Query block: Please give the documented IC50 of CC1=NN(c2ccc(OC(F)F)cc2)C(=O)C1C(=O)N(C)c1cc(C)cc(Cl)c1 (centres unmarked) [compound 393]
Result block: 100 to 1000 nM

Query block: Please give the documented IC50 of CCc1cccc(NC(=O)C2C(=O)N(c3ccccc3)N=C2Cc2ccccc2)c1 (centres unmarked) [compound 129]
Result block: 1000 to 100000 nM

Query block: Please give the documented IC50 of CC1=NN(C2CCS(=O)(=O)C2)C(=O)C1C(=O)Nc1ccccc1 (centres unmarked) [compound 202]
Result block: > 100000 nM

Query block: Please give the documented IC50 of CC1=NN(c2ccc3cc[nH]c3c2)C(=O)C1C(=O)Nc1cccc(C(C)(F)F)c1 (centres unmarked) [compound 410]
Result block: 0.01 to 6 nM

Query block: Please give the documented IC50 of CC1=NN(c2ccc(OC3CCCCC3)cc2)C(=O)C1C(=O)Nc1cccc(C(C)(F)F)c1 (centres unmarked) [compound 443]
Result block: 0.01 to 6 nM

Query block: Please give the documented IC50 of CCCC(=O)c1cccc(NC(=O)C2C(=O)N(c3ccccc3)N=C2C)c1 (centres unmarked) [compound 114]
Result block: 6 to 100 nM

Query block: Please give the documented IC50 of CC1=NN(c2ccccc2)C(=O)C1C(=O)Nc1cccc(-c2ccon2)c1 (centres unmarked) [compound 239]
Result block: 1000 to 100000 nM

Query block: Please give the documented IC50 of CC1=NN(c2ccccc2)C(=O)C1C(=O)Nc1ccc2[nH]cnc2c1 (centres unmarked) [compound 278]
Result block: 1000 to 100000 nM

* * *

Measured pIC50 values are reported for all entries that follow.
target: ACSS2 (Homo sapiens, UniProt Q9NR19); assay: biochemical
pIC50: −log10 of the molar value.

- Molecule: "CC1=NN(c2cc(Cc3ccccc3)cc(-c3ccccc3)c2)C(=O)C1C(=O)Nc1cccc(C(C)(F)F)c1 (stereo not shown) [compound 387]"
  Measured metric: "pIC50"
  Reported result: "8.22 to 11.00"
- Molecule: "CC(=O)c1cc(NC(=O)C2C(=O)N(c3ccc(OC(F)F)cc3)N=C2C)c2[nH]ccc2c1 (stereo not shown) [compound 408]"
  Measured metric: "pIC50"
  Reported result: "6.00 to 7.00"
- Molecule: "COc1cc(Cl)cc(N(C)C(=O)C2C(=O)N(c3ccc(OC(F)F)cc3)N=C2C)c1 (stereo not shown) [compound 392]"
  Measured metric: "pIC50"
  Reported result: "6.00 to 7.00"
- Molecule: "CC1=NN(c2ccc3ccn(Cc4ccccc4)c3c2)C(=O)C1C(=O)Nc1cccc(C(C)(F)F)c1 (stereo not shown) [compound 367]"
  Measured metric: "pIC50"
  Reported result: "8.22 to 11.00"
- Molecule: "CCCc1cc(-c2ccccc2)cc(N2N=C(C)C(C(=O)Nc3cccc(C(C)(F)F)c3)C2=O)c1 (stereo not shown) [compound 400]"
  Measured metric: "pIC50"
  Reported result: "7.00 to 8.22"

Query block: Please give the documented pIC50 of CC1=NN(c2ccc(S(=O)(=O)N(C)C)cc2)C(=O)C1C(=O)Nc1cccc(-c2ccco2)c1 (stereo not shown) [compound 160]
Result block: 7.00 to 8.22

Query block: Please give the documented pIC50 of CCCOc1ccc(N2N=C(C)C(C(=O)Nc3cccc(C(C)(F)F)c3)C2=O)cc1 (stereo not shown) [compound 448]
Result block: 8.22 to 11.00
